Reference for the values: patent US9302999B2

- Tested on: wild oat (Avena fatua)
- experiment: Test C pre-/postemergence: wild oat
- Assay type: in vivo
- condition.parameters: Preemergence, 31 g ai/ha; scale of 0 to 100, 0 is no effect, 100 is complete control
Provide the reported Plant response rating, Oat, Wild of each item.

Study these solved cases before continuing.
{"molecule": "COc1nn(-c2ccc(C(F)(F)F)cc2)nc1Cc1ccnc(C(F)(F)F)c1 [Compound 15]", "test.system": "wild oat (Avena fatua)", "Plant response rating, Oat, Wild": 40}
{"molecule": "FC(F)Oc1nn(-c2ccc(C(F)(F)F)cc2)nc1Cc1ccnc(C(F)(F)F)c1 [Compound 26]", "test.system": "wild oat (Avena fatua)", "Plant response rating, Oat, Wild": 45}
{"molecule": "COc1nn(-c2cccc(F)c2)nc1Cc1ccnc(C(F)(F)F)c1 [Compound 139]", "test.system": "wild oat (Avena fatua)", "Plant response rating, Oat, Wild": 10}

The reported Plant response rating, Oat, Wild of the molecule Cc1nn(-c2ccc(C(F)(F)F)cc2)nc1Oc1ccnc(C(F)(F)F)c1 [Compound 120] was 85

---

- Tested on: nightshade (eastern black nightshade, Solanum ptycanthum)
- experiment: Test C pre-/postemergence: nightshade
- Format: in vivo
- condition.parameters: Preemergence, 250 g ai/ha; scale 0 to 100, 0 no effect, 100 complete control
Provide the reported Plant response rating, Nightshade of each item.
One number for each entry.

Study these solved cases before continuing.
{"compound": "CCOc1nn(-c2ccc(F)cc2)nc1Cc1ccnc(C(F)(F)F)c1 [Compound 196]", "Plant response rating, Nightshade": 100}
{"compound": "Cc1nn(-c2ccc(F)cc2F)nc1Oc1ccnc(C(F)(F)F)c1 [Compound 146]", "Plant response rating, Nightshade": 98}
{"compound": "Cc1nn(-c2ccc(C(F)(F)F)cn2)nc1Cc1cccc(C(F)(F)F)c1 [Compound 106]", "Plant response rating, Nightshade": 100}

Now examine the next entry.
The reported Plant response rating, Nightshade of the compound COc1nn(-c2cccc(F)c2)nc1Cc1ccnc(C(F)(F)F)c1 [Compound 139] was 98

---

- Test system: kochia (Kochia scoparia)
- experiment: Test D pre-/postemergence: kochia
- Assay type: in vivo
- condition.parameters: Postemergence, 62 g ai/ha; scale 0 to 100 (0 no effect, 100 complete control)
Provide the reported Plant response rating: Kochia of each item.
Numbers only.

Study these solved cases before continuing.
{"test.smiles": "Cc1nn(-c2ccc(F)c(C(F)(F)F)c2)nc1Cc1ccnc(C(F)(F)F)c1", "quantity.name": "Plant response rating: Kochia", "recorded.value": 95}
{"test.smiles": "FC(F)(F)COc1nn(-c2ccc(C(F)(F)F)cc2)nc1Cc1ccnc(C(F)(F)F)c1", "quantity.name": "Plant response rating: Kochia", "recorded.value": 95}
{"test.smiles": "COc1nn(-c2ccc(C(F)(F)F)cc2)nc1Cc1ccnc(C(F)(F)F)c1", "quantity.name": "Plant response rating: Kochia", "recorded.value": 90}

Now examine the next entry.
The reported Plant response rating: Kochia of the compound Cc1nn(-c2ccc(C(F)(F)F)c(F)c2)nc1Oc1ccnc(C(F)(F)F)c1 was 85

---

- System: Barnyardgrass
- experiment: Test C postemergence: barnyardgrass
- Assay type: in vivo, Echinochloa crus-galli
- condition.parameters: 250 g ai/ha, scale 0 to 100
Provide the reported Plant response rating, Barnyardgrass of each item.

Study these solved cases before continuing.
{"compound": "CCCc1nn(-c2ccc(F)cc2F)nc1Oc1ccnc(C(F)(F)F)c1 [Compound 179]", "quantity.name": "Plant response rating, Barnyardgrass", "recorded.value": 75}
{"compound": "CCCc1nn(-c2ccc(C(F)(F)F)cc2)nc1Oc1ccnc(C(F)(F)F)c1 [Compound 170]", "quantity.name": "Plant response rating, Barnyardgrass", "recorded.value": 95}
{"compound": "CCCc1nn(-c2ccc(F)c(F)c2)nc1Oc1ccnc(C(F)(F)F)c1 [Compound 172]", "quantity.name": "Plant response rating, Barnyardgrass", "recorded.value": 90}

Now examine the next entry.
Plant response rating, Barnyardgrass on Barnyardgrass for CCc1nn(-c2ccc(C(F)(F)F)cc2)nc1Cc1ccnc(C(F)(F)F)c1 [Compound 155] is 75
